All values here come from the supplement of paper PMC7877785.

- method-notes: self-splicing fitness, log relative to wild type (ln ratio); higher = more splicing; Tetrahymena group I intron in knt gene, E. coli kanamycin selection, DiMSum; sequences stand for … in CUCUCU…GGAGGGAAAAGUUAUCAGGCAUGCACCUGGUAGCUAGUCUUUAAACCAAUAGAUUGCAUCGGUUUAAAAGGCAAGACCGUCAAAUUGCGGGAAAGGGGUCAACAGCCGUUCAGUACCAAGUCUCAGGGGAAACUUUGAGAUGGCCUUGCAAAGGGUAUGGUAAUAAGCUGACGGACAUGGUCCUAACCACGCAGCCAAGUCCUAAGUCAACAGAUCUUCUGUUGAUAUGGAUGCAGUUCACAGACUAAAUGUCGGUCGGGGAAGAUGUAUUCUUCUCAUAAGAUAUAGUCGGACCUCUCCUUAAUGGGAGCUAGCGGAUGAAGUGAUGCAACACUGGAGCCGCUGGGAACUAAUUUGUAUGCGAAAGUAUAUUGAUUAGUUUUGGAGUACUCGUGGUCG;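 further: selection with 25 µg/mL kanamycin versus none on LB agar overnight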
- recorded-conditions: 37 °C
// reported self-splicing fitness (ln) per item
assay-metric: self-splicing fitness (ln)

• AAUAAGCAAUAUUACGUGAA = -0.674
• CCGGAGCAAUAUUACGAUUA = -1.17
• AGGGAGCAAUAUUACGUCGG = -1.52
• AUAAAGCAAUAUUACGUUCA = 0.0639
• CUUCAGCAAUAUUACGGGAC = -0.836
• UCGUAGCAAUAUUACGGGUA = -0.425
• CGACAGCAAUAUUACGUAGG = -0.934
• ACUCAGCAAUAUUACGUCAU = -0.61

---

- method-notes: self-splicing fitness, log relative to wild type (ln ratio); higher = more splicing; Tetrahymena group I intron in knt gene, E. coli kanamycin selection, DiMSum; sequences stand for … in CUCUCU…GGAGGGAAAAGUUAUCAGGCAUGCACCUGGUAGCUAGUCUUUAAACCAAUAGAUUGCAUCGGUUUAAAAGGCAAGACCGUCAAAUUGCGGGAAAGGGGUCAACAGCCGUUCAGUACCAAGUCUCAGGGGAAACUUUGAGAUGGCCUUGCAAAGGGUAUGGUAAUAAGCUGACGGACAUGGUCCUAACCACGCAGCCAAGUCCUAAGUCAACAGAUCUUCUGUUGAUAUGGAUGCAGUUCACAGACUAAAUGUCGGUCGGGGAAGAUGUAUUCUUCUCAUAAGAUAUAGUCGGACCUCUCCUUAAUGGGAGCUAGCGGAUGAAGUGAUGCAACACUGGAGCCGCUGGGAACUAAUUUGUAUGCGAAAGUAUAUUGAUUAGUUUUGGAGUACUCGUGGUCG
- recorded-conditions: 30 °C
assay-metric: self-splicing fitness (ln)

* AGCAAGCAAUAUUACGCUAU | -2.4
* CUAAAGCAAUAUUACGCCGU | -3.75
* CUUAAGCAAUAUUACGCAGU | -3.71
* AGCUAGCAAUAUUACGAGGG | -3.75
* UGGGAGCAAUAUUACGGGCC | -2.63
* AGAAAGCAAUAUUACGGCCG | -0.348
* UAGCAGCAAUAUUACGCGCC | -1.77
* UUCUAGCAAUAUUACGAAUA | -2.64
* GAUUAGCAAUAUUACGGGGG | -4.1
* GUACAGCAAUAUUACGGUUA | -0.862
* CGGGAGCAAUAUUACGCAUA | -2.61
* GUGUAGCAAUAUUACGUUGC | -1.92
* GCCAAGCAAUAUUACGAAAU | -3.24
* CUGGAGCAAUAUUACGCGCU | -3.54
* GCGGAGCAAUAUUACGCAUC | -4.01
* CUAAAGCAAUAUUACGGAAG | -0.274
* GGGAAGCAAUAUUACGGCGC | -2.22

---

- method-notes: self-splicing fitness, log relative to wild type (ln ratio); higher = more splicing; Tetrahymena group I intron in knt gene, E. coli kanamycin selection, DiMSum; sequences stand for … in CUCUCU…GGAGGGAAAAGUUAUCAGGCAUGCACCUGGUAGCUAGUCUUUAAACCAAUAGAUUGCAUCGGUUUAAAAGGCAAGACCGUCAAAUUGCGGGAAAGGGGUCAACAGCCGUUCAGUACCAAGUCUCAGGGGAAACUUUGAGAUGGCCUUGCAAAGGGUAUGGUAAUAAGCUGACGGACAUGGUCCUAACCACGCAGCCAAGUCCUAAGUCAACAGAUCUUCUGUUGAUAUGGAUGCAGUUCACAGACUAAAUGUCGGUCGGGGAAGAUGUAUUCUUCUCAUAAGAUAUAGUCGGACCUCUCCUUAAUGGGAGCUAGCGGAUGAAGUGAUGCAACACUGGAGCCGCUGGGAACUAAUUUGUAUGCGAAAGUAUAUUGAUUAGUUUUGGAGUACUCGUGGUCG
- recorded-conditions: 30 °C
assay-metric: self-splicing fitness (ln)

• CGAUAGCAAUAUUACGCGCC = -2.04
• GGUAAGCAAUAUUACGUCAA = -1.9
• CGAUAGCAAUAUUACGUCAG = -1.39
• CUCAAGCAAUAUUACGUGAG = -3.05
• UAAUAGCAAUAUUACGGUCG = -0.872
• AAACAGCAAUAUUACGCUUU = -3.11
• UAAGAGCAAUAUUACGGCAA = -2.23
• GUAUAGCAAUAUUACGACAG = -2.58
• GACAAGCAAUAUUACGACUA = -0.408
• ACAAAGCAAUAUUACGAGAC = -3.61
• AAAGAGCAAUAUUACGCCCA = -2.88
• AUUUAGCAAUAUUACGAGCU = -1.88
• AGCGAGCAAUAUUACGCCAA = -3.98
• GAUUAGCAAUAUUACGAGUA = -2.63
• GCUAAGCAAUAUUACGCUUU = -3.06
• AUAUAGCAAUAUUACGUCAA = -2.93

---

# key: entry, value: self-splicing fitness (ln)
- method-notes: self-splicing fitness, log relative to wild type (ln ratio); higher = more splicing; Tetrahymena group I intron in knt gene, E. coli kanamycin selection, DiMSum; sequences stand for … in CUCUCU…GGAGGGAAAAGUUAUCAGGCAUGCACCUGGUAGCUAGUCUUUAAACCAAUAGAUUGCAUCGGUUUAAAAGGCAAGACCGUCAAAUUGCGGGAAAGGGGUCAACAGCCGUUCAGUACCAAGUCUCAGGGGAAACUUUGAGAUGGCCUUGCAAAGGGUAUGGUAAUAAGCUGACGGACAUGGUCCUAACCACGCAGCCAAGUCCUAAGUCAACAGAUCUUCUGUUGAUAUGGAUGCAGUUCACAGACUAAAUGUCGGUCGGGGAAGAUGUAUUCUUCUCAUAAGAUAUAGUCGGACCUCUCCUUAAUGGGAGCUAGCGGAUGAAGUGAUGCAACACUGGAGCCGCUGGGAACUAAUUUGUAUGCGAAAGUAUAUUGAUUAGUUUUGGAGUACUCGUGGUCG
- recorded-conditions: 37 °C
assay-metric: self-splicing fitness (ln)

• CCAGAGCAAUAUUACGAACU = -1.86
• UUCCAGCAAUAUUACGUCAC = -3.15
• CCUCAGCAAUAUUACGCUUU = -2.79
• ACGCAGCAAUAUUACGAGGC = -2.79
• CGAUAGCAAUAUUACGAACA = -1.38
• UUUUAGCAAUAUUACGCAUA = -0.671
• GAGGAGCAAUAUUACGGGAG = -3.63
• GUAGAGCAAUAUUACGUUAU = -0.698
• GCAAAGCAAUAUUACGGAAA = -1.66
• UCACAGCAAUAUUACGCUAA = -2.27
• AGCCAGCAAUAUUACGCUUC = -3.48
• AUAUAGCAAUAUUACGGGGC = -2.48
• GCGGAGCAAUAUUACGCGUC = -3.2
• GUCAAGCAAUAUUACGAAUG = -1.18
• CGCCAGCAAUAUUACGAGAC = -3.54
• CCCAAGCAAUAUUACGGUGC = -2.26
• CAAAAGCAAUAUUACGCGGA = -2.08
• GUCGAGCAAUAUUACGGUAU = -0.615
• AUCUAGCAAUAUUACGCCGU = -0.324
• AAACAGCAAUAUUACGCUCC = -0.165
• UGGCAGCAAUAUUACGCAUC = -1.65
• ACACAGCAAUAUUACGAUCA = -0.858
• AGUAAGCAAUAUUACGCGAC = -2.63
• AGUCAGCAAUAUUACGAGUA = -1.31
• UCCGAGCAAUAUUACGGCAA = -0.233
• AACGAGCAAUAUUACGCCGC = -3.58
• AAUCAGCAAUAUUACGCUUU = 0.378
• GAGGAGCAAUAUUACGGGGU = -2.64
• CGUUAGCAAUAUUACGGUCC = -1.08
• GCGCAGCAAUAUUACGACGA = -0.247
• GGCCAGCAAUAUUACGUAGU = -2.13
• AACAAGCAAUAUUACGGAAU = -1.75
• CGCCAGCAAUAUUACGUGCC = -0.673
• CCAUAGCAAUAUUACGCGGC = -2.87
